Tested on: Atrial natriuretic peptide receptor 1 (Oryctolagus cuniculus)
Experiment: Binding affinity for low-affinity site Atrial natriuretic peptide receptor 1 of rabbit adrenal membrane
Protocol Conditions: Adrenal gland
Define the label as 1 (yes) when KL is strictly less than 700 nM and as 0 (no) in all remaining cases.

Structure Notation | Class Assignment
CC[C@H](C)[C@@H]1NC(=O)[C@H]2CCCCNC(=O)C[C@@H](NC1=O)C(=O)N[C@@H](CCCN=C(N)N)C(=O)N[C@H]([C@@H](C)CC)C(=O)N[C@@H](Cc1ccccc1)C(=O)N[C@H](CCCN=C(N)N)C(=O)N[C@@H](C(N)=O)CSSC[C@@H](NC(=O)[C@H](N)CCCN=C(N)N)C(=O)N[C@H](C1CCCCC1)C(=O)NCC(=O)NCC(=O)N2 | 1 (yes)
CC[C@H](C)[C@@H]1NC(=O)[C@@H](CCCN=C(N)N)NC(=O)CNC(=O)CNC(=O)[C@@H](C2CCCCC2)NC(=O)[C@H](NC(=O)[C@H](N)CCCN=C(N)N)CSSC[C@H](C(N)=O)NC(=O)[C@@H](CCCN=C(N)N)NC(=O)[C@H]2Cc3ccccc3CN2C(=O)[C@@H]([C@@H](C)CC)NC(=O)[C@H](CCCN=C(N)N)NC(=O)[C@@H](CC(=O)O)NC1=O | 1 (yes)
CC[C@H](C)[C@@H]1NC(=O)[C@@H](CCCN=C(N)N)NC(=O)CNC(=O)CNC(=O)[C@@H](C2CCCCC2)NC(=O)CCSSC[C@@H](C(N)=O)NC(=O)[C@@H](CCCN=C(N)N)NC(=O)[C@H](Cc2ccccc2)NC(=O)[C@@H]([C@@H](C)CC)NC(=O)[C@H](CCCN=C(N)N)NC(=O)[C@@H](CC(=O)O)NC1=O | 0 (no)
CC[C@H](C)[C@@H]1NC(=O)[C@@H](CCCN=C(N)N)NC(=O)CNC(=O)CNC(=O)[C@@H](C2CCCCC2)NC(=O)[C@H](N)CSSC[C@H](C(N)=O)NC(=O)[C@@H](CCCN=C(N)N)NC(=O)[C@H](Cc2ccccc2)NC(=O)[C@@H](C)NC(=O)[C@H](CCCN=C(N)N)NC(=O)[C@@H](CC(=O)O)NC1=O | 0 (no)

====

Tested on: Atrial natriuretic peptide receptor 1 (Oryctolagus cuniculus)
Experiment: Binding affinity for low-affinity site Atrial natriuretic peptide receptor 1 of rabbit adrenal membrane
Protocol Conditions: Adrenal gland
Listing of entries alongside the reported KL.

Structure Notation | Unit Of Measurement | KL
CC(C)C[C@@H]1NC(=O)[C@@H](CCCN=C(N)N)NC(=O)CNC(=O)CNC(=O)[C@@H](Cc2ccccc2)NC(=O)[C@@H](C)NC(=O)[C@H](NC(=O)[C@H](CO)NC(=O)[C@@H](N)CO)CSSC[C@H](C(=O)N[C@H](Cc2ccccc2)C(=O)N[C@H](CCCN=C(N)N)C(=O)O)NC(=O)[C@@H](CC(C)C)NC(=O)[C@H](CCCN=C(N)N)NC(=O)[C@@H](CC(=O)O)NC1=O | nM | 680
CC[C@H](C)[C@H]1NC(=O)[C@H](CCCN=C(N)N)NC(=O)[C@@H](CC(=O)O)NC(=O)[C@H](Cc2ccccc2)NC(=O)[C@@H](CCCN=C(N)N)NC(=O)CNC(=O)CNC(=O)[C@@H](C2CCCCC2)NC(=O)[C@H](NC(=O)[C@H](N)CCCN=C(N)N)CSSC[C@H](C(N)=O)NC(=O)[C@@H](CCCN=C(N)N)NC(=O)[C@H](Cc2ccccc2)NC1=O | nM | 680
CC[C@H](C)[C@@H]1NC(=O)[C@@H](CCCN=C(N)N)NC(=O)CNC(=O)CNC(=O)[C@@H](Cc2ccccc2)NC(=O)[C@H](NC(=O)[C@H](N)CCCN=C(N)N)CSSC[C@H](C(=O)O)NC(=O)[C@@H](CCCN=C(N)N)NC(=O)[C@H](Cc2ccccc2)NC(=O)[C@@H]([C@@H](C)CC)NC(=O)[C@H](CCCN=C(N)N)NC(=O)[C@@H](CC(C)C)NC1=O | nM | 680
